Experiment summary: yeast display, Sf9 membrane polyspecificity reagent, FACS + sequencing; frameworks hold sequencing errors
Readout label: polyreactivity (PSR sort gate)

Examples from the recorded data:
>>> df
                             input_sequence                   readout_label               result
0  QVQLVESGGGLVQAGGSLRLSSAASGSTYFTYAMGWYRQAPGKERELVAAISWSGGTTYYADSVKGRFTISRDNAKNTVYLQMNSLKPEDTAVYYCASARDGILKANDYWGQGTQVTVSS  polyreactivity (PSR sort gate)   low polyreactivity
1  QVQLVESGGGLVQAGGSLRLSCAASGRTFYYNAMGGYRPAPGKERELVATITWTGDSTYADSVKGRFTISRDNAKNTVYLQMISLKPEDTAVYYCAAGKPVILTGDYDYWGQGTQVTVSS  polyreactivity (PSR sort gate)   low polyreactivity
2  QVQLVESGAGLVQAGGSLRLSCAASGRTFTSNSMGLYIQAPGKERELVASISFRGGRTYYADSVKVRFTISRDNAKNTVYLQMNSLKPEDTAVYYCVSGTKRTGYGYWGQGTLVTVSS  polyreactivity (PSR sort gate)  high polyreactivity
3  QVQLVESGRGLVQEGGSLRLSCAASGRNVVFYTMGWNRQEPVKERELVATISIRGSTYYADSVKGRFTISRDNAKNTVYLKMNSLKPEDTAVYYCAAVYYSYYSFSYNYWGQGTVVTVSS  polyreactivity (PSR sort gate)   low polyreactivity

Item QVQLVESGGGLVQAGGSLRLSCAASGSTFRNAMGWYRQAPGKERELVAAISYSGGRTYYADSVKGRFTISRDNAKNTVYLQMNSLKPEDTAVYYCASPGVSWSTRSYYYWGQGTQVTVSS : provide polyreactivity (PSR sort gate)
high polyreactivity

* * *

Experiment summary: yeast display, Sf9 membrane polyspecificity reagent, FACS + sequencing; frameworks hold sequencing errors
Readout label: polyreactivity (PSR sort gate)

Input sequence	Result
QVQLVESGGGLVQAGGRLRLSCAASGSIFVPNAMGGYRQAPGKERELVAAISGIGGSTSYADSEKGRFTISRDNAKNTVDLHMNSLQQEDTAVYYCARADKLHTRGWGRWGSGSYSWGQGTQVTVSS	low polyreactivity
QFQLVESGGGLVQAGGSLRLSCAASGSIFGGYAMGWYRQAPGKEREFVAAITRSGVSTYYADSVKGRFTISRDNEKNTVYLQMNSLKPEDTAVYYCAADQTAWRLRVYLRQYRYEYWGQGTQVTVSS	high polyreactivity
QVQLVESGGGLVQAGGSLRLICAASGSTFPYYDMGWYRQAPGKETELVAAISWSGDSTYYADSVKGRFTISRDNAKNTVYLQMNSLKPEDTAVYYCAAYSDYWSYLSTDDYWGQGTQVTVSS	low polyreactivity
QVQLVESGGGLVQAGGSLRLSCAASGLTFASYAMGWYRQAPGKERELVAAISSSGRTYYADSVKGRFTISRDNAKNTVYLQMNSLKPEDTAVYYCATRGLSRYYDYYYWGQGTQVTVSS	high polyreactivity
QVQLVESGGGLVQAGGSLRLSCAASGRIFPAYTMGWYRQAPGKERELVAAITWSGGSTYYADSVKGRFTISRDNAKNTVYLQMNSLKPEDTAVYYCAADKLYWYYGTEYGYWGQGTQVTVSS	low polyreactivity
QVQLVESGGGLVQAGGSLRLSCAASGGIFPGYAMGWYRQAPGKETELVAAISGSGSSTYYADSVKGRFTISRDHAKNTVYVQMNSLKPEDTAVYYCNVVTRVLPTRFDYWGQGTQVTVSS	high polyreactivity
QVQLVESGGGLVQAGGSLRLSCAASGSIFNRNAMGWYRQAPGKERELVATITRNGGRTYYADSVKGRFTISRDNAKNTVYLQMNSLKPEDTAVYYCNAVRQRLRPGNLFDLDYWGQGTQVTVSS	low polyreactivity
QVQLVESGGGLVQAGGSLRLSCAASGFIFTRNAMGWYRQAPGKERELVAAITSSGGSTYYADSVKGRFTISRDNAKYTVYLQMNCLKPEDTAVYYFAADDIQTYGDDYWGQGTQVTVSS	high polyreactivity

Provide only the value of recorded polyreactivity (PSR sort gate) for QVQLVESGGGLVQAGGSLLLSCAAYGSISPYYTMGLYRQAPGKERELVAAICSGGRTYYADSVKGRFTISRDNAKNTVYLHMNSLNPEDTSVYYCAVEVAWYVHWGDMDYWGQGTQVTVSS
low polyreactivity

Tell me its polyreactivity (PSR sort gate) given QVQLVESGGGLVQAGGSLRLSCAASGSTLDYYAIGWYRQAPGKEREFVAGIDSAGSTNYADSVKGRFTISRDNAKNTVYLQMNSLKTGRYRGLYCNVGKTITTYAFPTFDYWGQGTQVTVSS as the entry.
low polyreactivity

Give a short answer stating reported polyreactivity (PSR sort gate) for QVQLVESGGGLVQAGGSLRLSCAASGRTFTNYAMGWYRQAPGKERELVASISNAGSTNYADSVKGRFTISRDNAKNTVYLQMNSLNPEDTAVYYCAADFFAGTQRTFDYWGQGTQVTVSS .
high polyreactivity

* * *

Experiment summary: yeast display, Sf9 membrane polyspecificity reagent, FACS + sequencing; frameworks hold sequencing errors
Readout label: polyreactivity (PSR sort gate)

Before answering, review these 5 worked examples.
Input sequence	polyreactivity (PSR sort gate)
QVQLVESGGGLVQAGGSLRLSCAASGIIFLNNAMGCYRQAPGKERELVAAITRTSTSTYYADSVKGRFTISRDNAKNTVYLQMNSLKPEDTAVYYSLVYWGQGTQVTVSS	low polyreactivity
QVQRVESGGGLVQAGGSLRLSCAACGLTFRQYAMVWYRQAPGKERELVAAIRSRGGSTYYADSVKGRFTISRDNAKNTVYFQMNSLKPEDTAVYYCAAGGRGWWLYRYNFFSEMDYWGQGTQVTVSS	high polyreactivity
QVQLVESGGGLVQAGGSLRLSCAASGSTFYSYAMGWYRQAPGKEREFVAVISWSGGRTRYADSVKGRFTISRDNAKNTVYLQMNSLKPEDTAVYYCNARKWGYSPHRKGDRHFEYWGQGTQVTVSS	low polyreactivity
QVQLVESGGGLVQARGSLRLSCAASGRSFVINAMGWYRPAPGKERELVAGITSSGNTNYADSVKGRFTISRDNAKNTVYLQMNSLKPEDTAVYDCNAQVYLTWLTYWLYYPPNDYWGQGTQVTVSS	low polyreactivity
QVQLVESGGGLVQAGGSLRLSCAASGYIFGYNAMGWYRPAPGKERELVATITWRGGSTYYADSVKGRFTISRDNAKNTVYLQMNSLKPEDTAVYYCAAVRWVRYRTSAYEYWGQGTQVTVSS	high polyreactivity

Identify the reported polyreactivity (PSR sort gate) for the following entry. QVQLVESGGGLVQAGGSIRLICAASGFIISWYAMGWYRQAPGKERELFAAISSGGSTTYADSVKGRFTISRDNAKNTVYLQMNSLKPEDTAVYYCNADQVYGYNYWGQGTQVTVSS
high polyreactivity

Specify polyreactivity (PSR sort gate) for QVQLVESGGGLVQAGGSLRLSCAASGLTFYYYAMGWYRQAPGKERELVAAISATGGRTDYADSVKGRFTISRDNAKNTVYLQMNSLKPADPAVYYCAADTPYLRRRRGMDYWGQGTQVTVSS and stop.
high polyreactivity

# return recorded polyreactivity (PSR sort gate) for input QVQLVESGGGLVQEGGSLRLSCSDSGRILRRYTMGWYRQAPGKERELVAAISSGGNTYYADSVKGRFTISRDNAKNTVYLQMNSLKPEDTGVDYCAARVRRYWEYDYWGKGTQVTVSS
low polyreactivity

Read the entry QVQLVESGGGLVQAGGSLRLSCAASGRIFGFYAMGWYRPAPGKERELVARITLSGGRTYYADSVKGRFTISRDNAKNTVYLQMNSLKPEDTAVYYCAADSIGRLWGYGYWGQGTQVTVSS and write its reported polyreactivity (PSR sort gate).
high polyreactivity

Find the measured polyreactivity (PSR sort gate) of QVQLVESGGGLVQAGGSLRLSCAASGYTFATYTMGWYRQAPGKERELVAAITGGGGSTSYADSVKGRFTISRDNAKNTVYLQMNSLKLEDTAVYYCNAGISVDYSLEKYDYWGQGTQVTVSS and report it.
low polyreactivity

State its polyreactivity (PSR sort gate) for this sequence: QVQLVESGGGLFQAGGSHRLSCAASGRIFPSYAMGWYRQAPGTQRELVAAIPRGGASTYYADSVKGRFTISRDIAQNTVYLQMNSLKPEDTAVYYCAARRSYTYGRDYWGQGTQVTVSS
high polyreactivity

Output measured polyreactivity (PSR sort gate) for this item: QVQLVESGGGLVQAGGSLRLSCAASGSTIWSNAMVWYRQAPGKERELVAVISGGTSTNYADSVKGRFTISRDNAKNTVYLQMNSLKPEDTAVFYCAADWGSYLILINDTDMDYWGQGTQVTVSS
low polyreactivity

Hello, please tell me recorded polyreactivity (PSR sort gate) for this one: QVQLVESGGGLVQAGGSLRLSCAASGIIFIHYTMGWYRQAPGKERELVAAISWSGGSTYYADSVKGRFTISRDNAKNTVYLQMNSLKPEDTAVYYCAADYIFYHRMYYWGQGTQVTVSS
high polyreactivity

Provide only the value of recorded polyreactivity (PSR sort gate) for QVQHVESAGRLVQAGGSLRLSCAASGRILVYYALGWYRQPPGKEREFVAAISQRGGSTYYADSVKGRFTISRDNAKNTVYLQMNSLKPDDTEVYYCATRPIQYRRGYDYWGQGTQVTVSS
high polyreactivity
